- ASSAY DETAILS: amyloid nucleation score (Sup35N fusion, yeast selection) (log enrichment); library NNK3; higher = more nucleation; inactive = no reads after selection;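 further: zero at mode of non-aggregating sequences after 7 days selection at 30°C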
MEASURE NAME: amyloid nucleation score

Solved cases below.
| SUBSTANCE | MEASURE NAME | EXPERIMENTAL VALUE |
| --- | --- | --- |
| SLFFLSMFVHLMDEMWDWES | amyloid nucleation score | inactive |
| VYCPELLSRCGQVGSTCCDR | amyloid nucleation score | inactive |
| LCNKWY | amyloid nucleation score | inactive |
| FSITVFFVNIAATSKPYLDK | amyloid nucleation score | inactive |
| CFTLFVSQYVNDLDDYKRNW | amyloid nucleation score | 1.34 |

-- ask State its amyloid nucleation score for this substance: FTRNCSKWIVG
-- reply inactive

-- ask Name the recorded amyloid nucleation score of the substance listed here: IMYFMLMLGSSRMSFTKLMG
-- reply inactive

* * *

- ASSAY DETAILS: amyloid nucleation score (Sup35N fusion, yeast selection) (log enrichment); library NNK3; higher = more nucleation; inactive = no reads after selection
MEASURE NAME: amyloid nucleation score

Examples from the recorded data:
| SUBSTANCE | EXPERIMENTAL VALUE |
| --- | --- |
| SRLMWSGNLWRILVWCFTSN | inactive |
| SKVQVIFLSSFFGTIQLWVL | inactive |
| DYMRFTYRIMNCLSDCYITN | inactive |
| VLGYDGAGKVVIFDVNLAGL | 1.87 |

-- ask Quote amyloid nucleation score reported for MSSNFTRS please.
-- reply inactive

-- ask Please supply the value of reported amyloid nucleation score for the item KVRSARVRMHHNRYDKEMSG
-- reply inactive

-- ask Please report amyloid nucleation score for the following substance: KMLQLVVGIRILVNRMSWSR
-- reply inactive

-- ask Consider the substance NYKLQKHAWMNYSAHQECLF and give its recorded amyloid nucleation score.
-- reply inactive

-- ask Look up and state reported amyloid nucleation score for HLCDFPLEVKTLFFLL
-- reply 0.508

* * *

- ASSAY DETAILS: amyloid nucleation score (Sup35N fusion, yeast selection) (log enrichment); library NNK2; higher = more nucleation; inactive = no reads after selection
Provide the recorded amyloid nucleation score for the entries that follow.
// return a plain number; no unit text

-- ask Look up and report measured amyloid nucleation score for this entry: LYDMTCRSSVKGNV
-- reply -1.19

-- ask Give me measured amyloid nucleation score, please, for this substance: SLPCRIISNLYLPA
-- reply -1.23

-- ask Give a short answer stating reported amyloid nucleation score for LMPGMVGDRRGCNDK .
-- reply 0.49

-- ask Retrieve amyloid nucleation score measured for AYYALCL and print it.
-- reply -0.92

* * *

- ASSAY DETAILS: amyloid nucleation score (Sup35N fusion, yeast selection) (log enrichment); library NNK1; higher = more nucleation; inactive = no reads after selection
MEASURE NAME: amyloid nucleation score

-- ask Specify reported amyloid nucleation score for the substance shown: YSRLRVCTNSAMLELGFS
-- reply 1.03

-- ask Provide only the value of recorded amyloid nucleation score for VGHPKVFWDGVGSRTILERS
-- reply 0.48

-- ask For the substance YFSKICRSLFDM , give its measured amyloid nucleation score value.
-- reply 0.906

-- ask Identify amyloid nucleation score associated with the substance IYACRGQRVMRTRIKCVVIW
-- reply 0.525

-- ask For the substance SVDNMVGVTGSFGGARVILS , give its measured amyloid nucleation score value.
-- reply -0.237

-- ask Name the recorded amyloid nucleation score of the item YNSVKVNRFH in your answer.
-- reply 1.3

-- ask Respond only with amyloid nucleation score recorded for LSCWTCNRFYRGGLLVCMYP
-- reply -0.713

-- ask Please report the measured amyloid nucleation score for GVWLVSDRKVADVRSNYCFD
-- reply -2.18

-- ask Please indicate amyloid nucleation score recorded for TGGTNGHKASCEVRFTVTER
-- reply 1.08

-- ask Consider the substance FTSAASQFRVMSGQSNSKYP and give its recorded amyloid nucleation score.
-- reply -1.2

-- ask Identify the reported amyloid nucleation score for the following entry. HVPSFRFFFRDNLI
-- reply 0.385

-- ask Read the entry PICANWLMHTVMINSSSGRG and write its reported amyloid nucleation score.
-- reply 0.27

-- ask Give the reported amyloid nucleation score for this substance. RLAWPRKSSSCN
-- reply 0.774

-- ask Tell me its amyloid nucleation score given RNPTFFAMCSMCWLSTT as the entry.
-- reply 0.852

-- ask Complete the entry with amyloid nucleation score for YRSFCFRWWISSGCAGLRGS
-- reply 0.489

-- ask Read the entry PWCQVRHSSYRASWSSVVVN and write its reported amyloid nucleation score.
-- reply -0.254

-- ask Look up and report measured amyloid nucleation score for this entry: ILKDVFIITVISSCSITSKL
-- reply 2.37

-- ask Read off the recorded amyloid nucleation score for STILPIGWNFDCCITISSCV
-- reply 0.372

-- ask State its amyloid nucleation score for this substance: SQMLELVFK
-- reply 0.818

-- ask Answer with reported amyloid nucleation score of CTEKMIFTDLHRLRVVYKYT
-- reply -0.59

-- ask For the substance VIVWVWSCVM , give its reported amyloid nucleation score.
-- reply 6.25

-- ask Please give measured amyloid nucleation score of the following entry: FLCPRSCHGPNTFDFIMWSF
-- reply 0.198

-- ask Return amyloid nucleation score for the following substance: YILLLFSVVWIKKFGDCSCA
-- reply -0.048

-- ask Quickly give me recorded amyloid nucleation score for DIRNLLTWSISDVVTVRKIG
-- reply -0.643

-- ask For the substance TRRSRFW , give its measured amyloid nucleation score value.
-- reply 1.45

-- ask Give me measured amyloid nucleation score, please, for this substance: VVSDRRFYLLKFKSGVLSLV
-- reply -0.043

-- ask Please report the measured amyloid nucleation score for VARHISAVSAWGACYRWCFR
-- reply 0.706

-- ask Given the substance ILSLNCFYRTWRLEMNKSYK , write its reported amyloid nucleation score.
-- reply 1.94

* * *

- ASSAY DETAILS: amyloid nucleation score (Sup35N fusion, yeast selection) (log enrichment); library NNK1; higher = more nucleation; inactive = no reads after selection
# binarize amyloid nucleation score: threshold 0.4 inclusive, high side yes (1), low side no (0)

-- ask Determine whether this substance has amyloid nucleation score no lower than 0.4: DIRMVDWVRNRVQHVADGK
-- reply no (0)

-- ask Given NMHLTYETDRFARYVNSKFN , state whether its amyloid nucleation score is at least 0.4.
-- reply yes (1)

-- ask Quick check, amyloid nucleation score >= 0.4? TIATLFIFRDLFNFECLNSH
-- reply yes (1)

-- ask Is it the case that IFYSLQLVTARSTEVMGDTP has amyloid nucleation score reaching or exceeding 0.4?
-- reply yes (1)

-- ask Reported amyloid nucleation score reaches at least 0.4 for IYKLLGRVKSMMFLWYTVHS ?
-- reply no (0)

-- ask Hi team, for HRILRESRAGRF , is the recorded amyloid nucleation score at or above 0.4?
-- reply no (0)

-- ask Kindly determine if amyloid nucleation score recorded for SYGDQSVEKSLRSTATPDPQ is above or exactly 0.4.
-- reply no (0)

-- ask Decide: amyloid nucleation score of YTVLEGGALCFLKELRHRIL >= 0.4?
-- reply no (0)

-- ask Is it the case that TMISLAFIIYPLNMAPMYME has amyloid nucleation score reaching or exceeding 0.4?
-- reply yes (1)

-- ask Does amyloid nucleation score meet or surpass 0.4 for ASRRSSHHSGRMHRAQLSGF ?
-- reply no (0)

-- ask I'd appreciate it if you could say whether RMAHVKHFL has amyloid nucleation score at least equal to 0.4.
-- reply yes (1)

-- ask Quick check, amyloid nucleation score >= 0.4? AIEPHDGFWGVWSTLGVILI
-- reply yes (1)

-- ask Entry KSQGEVFRVAREGNFIIEES : is its amyloid nucleation score no less than 0.4?
-- reply no (0)

-- ask Hi team, for ADDGCSRNVCQTLYMSFLVN , is the recorded amyloid nucleation score at or above 0.4?
-- reply no (0)

-- ask Test whether the substance WYVLARGMYENTLVGSCSMV records amyloid nucleation score of 0.4 or higher.
-- reply yes (1)

-- ask Hi team, for INLTNIHFCHVNFVVGALKP , is the recorded amyloid nucleation score at or above 0.4?
-- reply yes (1)

-- ask Confirm if amyloid nucleation score reported for the substance VPRVYMFKFGIILFFYMHKA is 0.4 or above.
-- reply no (0)

-- ask Would you say LSDRVFSVTTQGPCDSIFLS shows amyloid nucleation score at minimum 0.4?
-- reply no (0)

-- ask Given WLLLNDSFSTRHLFMPRSKW , state whether its amyloid nucleation score is at least 0.4.
-- reply no (0)

-- ask Test whether the substance KFIIAGNLNQKSTSWV records amyloid nucleation score of 0.4 or higher.
-- reply yes (1)

-- ask Would you say RGVARWRCGNKICNA shows amyloid nucleation score at minimum 0.4?
-- reply no (0)

-- ask Could you tell me if the measured amyloid nucleation score of NGYIKRVFFSVNMFSMHTSF reaches 0.4 or more?
-- reply no (0)

-- ask Reported amyloid nucleation score at or above 0.4? LNSVVTVKWVLKARSLVVRC
-- reply yes (1)

-- ask Does amyloid nucleation score meet or surpass 0.4 for MYSLVCNHCAQSISIPSRWS ?
-- reply yes (1)

-- ask Confirm if amyloid nucleation score reported for the substance PACFSGCEVGFASDMCVLEL is 0.4 or above.
-- reply yes (1)

-- ask Is amyloid nucleation score at least 0.4? Consider IMLNLFHYGSSLQQFKTHH
-- reply yes (1)

-- ask Form field: amyloid nucleation score at least 0.4? Entry: SGDSSYIMLLVVAPMYCQLP
-- reply no (0)

-- ask Reported amyloid nucleation score reaches at least 0.4 for LSHLLMRCGCIRLFVISMRE ?
-- reply yes (1)

-- ask Quick check: does HSFGKTFGDCYRRHSYLVNE have amyloid nucleation score greater than or equal to 0.4?
-- reply no (0)

-- ask Given the entry SMDLHMYSKFMRYSVFVCNL , answer whether its amyloid nucleation score meets or surpasses 0.4.
-- reply yes (1)

-- ask hey, is amyloid nucleation score for this one >= 0.4? SILMWLNLARSLGTIYLLFV
-- reply no (0)

-- ask Tell me whether amyloid nucleation score is at least 0.4 here: TNVYESSVSFVMMGS
-- reply no (0)

-- ask # check: amyloid nucleation score of YKSCCVGITPM is greater than or equal to 0.4
-- reply no (0)

-- ask Check this substance for amyloid nucleation score at or above 0.4: SLDEVARVLCP
-- reply no (0)

-- ask Item DWLVRGVFPYVGMLDIALTY with amyloid nucleation score of 0.4 or above?
-- reply no (0)

-- ask Please tell me: is the substance EDRYGIVC at or over 0.4 in terms of amyloid nucleation score?
-- reply no (0)

-- ask Entry DSEDVVLQCEWWTRLARIEY : is its amyloid nucleation score no less than 0.4?
-- reply no (0)

-- ask Form field: amyloid nucleation score at least 0.4? Entry: DSSRSVFLWTGG
-- reply no (0)

-- ask Is the recorded value of amyloid nucleation score equal to or greater than 0.4 for this substance? MTGINYRAVRCAEGCRASRR
-- reply no (0)

-- ask Answer whether amyloid nucleation score of TKSTYSSTVTKRTSASCVTL is greater than or equal to 0.4.
-- reply no (0)

-- ask Record MCVGRDISGEWSYYQCMVEL ; criterion: amyloid nucleation score no lower than 0.4. Met?
-- reply yes (1)

-- ask Is the recorded value of amyloid nucleation score equal to or greater than 0.4 for this substance? CRCMLSLLRIRLGVSSARLG
-- reply no (0)

-- ask amyloid nucleation score >= 0.4 for FDDCFSLLIVPDSTVITKEQ ?
-- reply yes (1)

-- ask Is it the case that IWAHVPTSRYEILVVFSG has amyloid nucleation score reaching or exceeding 0.4?
-- reply no (0)

-- ask Form field: amyloid nucleation score at least 0.4? Entry: YLPIKPFIYANILWGFTVSC
-- reply no (0)

-- ask Threshold query (amyloid nucleation score >= 0.4) on VDRLNFLSLSYENFSGSSGE
-- reply yes (1)

-- ask Is reported amyloid nucleation score greater than or equal to 0.4 here: KRMDKPWTPGYTAMHWVDNM
-- reply yes (1)

-- ask amyloid nucleation score >= 0.4 for GQHSFGAECTVQSCGWGCRW ?
-- reply yes (1)

-- ask Does VLNLIRRGIWGYHHEMGTG have a reported amyloid nucleation score of at least 0.4?
-- reply no (0)

-- ask Is reported amyloid nucleation score greater than or equal to 0.4 here: ERPTNSYGSREILNSYIINF
-- reply yes (1)

-- ask Is it the case that CDLFSRACGSAMDTYNKSHI has amyloid nucleation score reaching or exceeding 0.4?
-- reply no (0)

-- ask Check the entry MWCLGLDIFRIRVYRCAGGG : does amyloid nucleation score equal or exceed 0.4?
-- reply no (0)

-- ask Is amyloid nucleation score at least 0.4? Consider PLEMGSHIGRL
-- reply no (0)

-- ask Hi, just wondering whether IWEFSWLYMLKVMRSGFSYN shows amyloid nucleation score of 0.4 or higher.
-- reply no (0)

-- ask Exam item: decide whether the reported amyloid nucleation score for VSCGDELVGDRI is at least 0.4.
-- reply no (0)

-- ask Hi team, for VPALQQIPYCMI , is the recorded amyloid nucleation score at or above 0.4?
-- reply yes (1)
